Entry source: PubChem BioAssay AID1996

particulars: buffer; pH 7.4; 200.0 µM
assay.metric: solubility kinetic (mg/mL)
Could you give me the number in mg/mL? Just the number is fine.

Asked: Fill in the blank: the reported solubility kinetic of CCCCS(=O)(=O)N1CCCC(C(=O)Oc2ccccc2)C1 (stereo not given) is ____.
Given back: 0.0139

Asked: For Cc1onc(-c2ccccc2)c1C(=O)NCc1ccc(Cl)cc1 , what is its reported solubility kinetic?
Given back: 0.0013

Asked: Name the recorded solubility kinetic for O=C(NC(=S)N1CCCC(C(F)(F)F)C1)c1ccc(F)cc1 (stereo not given) .
Given back: 0.0379

Asked: Give the measured solubility kinetic of CCOC(=O)c1cnc(COc2ccc(OC)cc2)[nH]c1=O .
Given back: 0.0447

Asked: Quick one: solubility kinetic of O=C(COC(=O)/C=C/c1ccccc1Cl)Nc1cccnc1Cl ?
Given back: 0.0029
